B1: CPEB3 Ribozyme (parent)
chain: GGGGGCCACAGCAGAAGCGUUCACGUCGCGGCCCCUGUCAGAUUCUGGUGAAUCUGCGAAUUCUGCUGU

variants of: B1; experiment: self-cleavage, relative activity (ratio to wild type); higher = more cleavage; co-transcriptional
Classify by measured self-cleavage: yes if it is equal to or exceeds 0.7, no if it is smaller.

Worked cases, answers included:
In: Assess whether reported self-cleavage for G17C U43A sits at 0.7 or higher.
Out: no

In: Assess whether reported self-cleavage for G14C G50A sits at 0.7 or higher.
Out: no

In: Assess whether reported self-cleavage for "G56U" sits at 0.7 or higher.
Out: yes

In: Assess whether reported self-cleavage for C35U A51U sits at 0.7 or higher.
Out: yes

In: Assess whether reported self-cleavage for A42G A59G sits at 0.7 or higher.
Out: yes

In: Assess whether reported self-cleavage for A23U U36C sits at 0.7 or higher.
Out: yes

In: Assess whether reported self-cleavage for G37U G48U sits at 0.7 or higher.
Out: no

In: Assess whether reported self-cleavage for G17A U26C sits at 0.7 or higher.
Out: no

Next:
In: Assess whether reported self-cleavage for A13G U67A sits at 0.7 or higher.
Out: yes

In: Assess whether reported self-cleavage for U20G U61G sits at 0.7 or higher.
Out: no

Source of measurements: the RNAGym collection of RNA variant scans (doi:10.7554/elife.80360)
